- MEASUREMENT_DESCRIPTION: chemical genetic growth profiling, strain panel (AID 1159580);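 also: tested at 20 µM; growth read once vehicle control cultures reached saturation at 30 °C; 1 = growth at the plate median or of vehicle wells; lower values mean less growth of the strain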
- EXPERIMENTAL_CONDITIONS: S. cerevisiae deletion strains, growth OD, locus YGR040W, strain KSS1, stronger effect = lower value
Screen size: about 5,500 compounds; about 2,000 (36%) were called active. Another 18% or so got no clear call; they are omitted. The list shows a part of the results.
Reported values of normalized growth for individual entries
Please give only the number in your answer, with no unit.

Cc1cc(C)c2cc(C(=O)NCCNc3ccc(C(F)(F)F)cn3)[nH]c2c1: 0.501

Could you now look at the following molecule, please?
For record `COC(=O)c1cc([N+](=O)[O-])ccc1S(=O)(=O)Cc1ccc(Cl)cc1` the listed normalized growth is 0.941

###

Reported values of normalized growth for individual entries
- MEASUREMENT_DESCRIPTION: chemical genetic growth profiling, strain panel (AID 1159580)
- EXPERIMENTAL_CONDITIONS: S. cerevisiae deletion strains, growth OD, locus YDL192W, strain arf1, stronger effect = lower value
The campaign covered roughly 5,500 compounds. About 2,000 (36%) were called active. Another 18% or so got no clear call; they are omitted. The list shows a part of the results.
Please give only the number in your answer, with no unit.

// below: answered molecules
O=C(O)c1cc(O)c2c(c1)C(=O)c1cc(O)cc(O)c1C2=O: 0.926
CN1CCCCC1c1ccc(-c2cccnc2)nc1 (stereo unspecified): 0.983
CC(=O)OC[C@@]1(O)C[C@@]23CCC4c5ccoc5CC[C@]4(C)C2CC[C@@H]1C3 (stereo partly specified): 0.932
COC1=CC23CCCN2CCc2cc4c(cc2C3C1O)OCO4 (stereo unspecified): 1
COc1ccc(CC(=O)c2ccc(O)cc2O)cc1: 0.865
COC(=O)c1cc(OC)c(=O)c2c(OC)c(OC)ccc2c1: 0.971
COc1cc(O)ccc1C(C)=O: 0.992
CC[C@H]1OC(=O)[C@H](C)[C@@H](O[C@H]2C[C@@](C)(OC)[C@@H](O)[C@H](C)O2)[C@H](C)[C@@H](O[C@@H]2O[C@H](C)C[C@H](N(C)C)[C@H]2O)[C@](C)(O)C[C@@H](C)/C(=N/OCOCCOC)[C@H](C)[C@@H](O)[C@]1(C)O: 1.01

For record `COc1ccc([C@@H](C)C(=O)c2ccc(O)cc2O)cc1` the listed normalized growth is 0.931

For record `O=C1C=CC(=O)c2c(O)cccc21` the listed normalized growth is 0.972

For record `Cc1cc(O)c2c(c1)C(=O)c1cccc(O)c1C2=O` the listed normalized growth is 0.967

For record `O=C(/C=C/c1ccccc1)c1c(O)cc(O)cc1O` the listed normalized growth is 1

For record NC(Cc1ccc(Cl)cc1)C(=O)O (stereo unspecified) the listed normalized growth is 1

###

- MEASUREMENT_DESCRIPTION: chemical genetic growth profiling, strain panel (AID 1159580)
- EXPERIMENTAL_CONDITIONS: S. cerevisiae deletion strains, growth OD, locus YGL167C, strain pmr1, stronger effect = lower value
Out of some 5,500 compounds screened, about 2,000 (36%) were called active. Another 18% or so got no clear call; they are omitted. The list shows a part of the results.
MEASURED_ATTRIBUTE: normalized growth
Please give only the number in your answer, with no unit.

For record O=C(c1ccccc1)c1ccc2n1CCC2C(=O)O (stereo not given) the listed normalized growth is 0.998

###

- MEASUREMENT_DESCRIPTION: chemical genetic growth profiling, strain panel (AID 1159580)
- EXPERIMENTAL_CONDITIONS: S. cerevisiae deletion strains, growth OD, locus YLR113W, strain HOG1, stronger effect = lower value
Screen size: about 5,500 compounds; about 2,000 (36%) were called active. Inconclusive results (about 18%) are left out. Some of the results follow.
Reported values of normalized growth for individual entries

// below: answered compounds
CCOC(=O)c1cnc(-c2ccccn2)[nH]c1=O: 0.487 (active)
COCC1=C(C(=O)OC(C)OC(=O)OC(C)C)N2C(=O)[C@@H](NC(=O)/C(=N\OC)c3csc(N)n3)[C@H]2SC1 (some centres undefined): 0.943 (inactive)
CCOC(=O)c1ccc(N=Cc2cc(Cl)cc(Cl)c2O)cc1: 0.166 (active)

Could you now look at the following compound, please?
For record `CC[C@H]1OC(=O)[C@H](C)[C@@H](O[C@H]2C[C@@](C)(OC)[C@@H](O)[C@H](C)O2)[C@H](C)[C@@H](O[C@@H]2O[C@H](C)C[C@H](N(C)C)[C@H]2O)[C@](C)(O)C[C@@H](C)/C(=N/OCOCCOC)[C@H](C)[C@@H](O)[C@]1(C)O` the listed normalized growth is 0.967 (inactive)

###

- MEASUREMENT_DESCRIPTION: chemical genetic growth profiling, strain panel (AID 1159580)
- EXPERIMENTAL_CONDITIONS: S. cerevisiae deletion strains, growth OD, locus YNL307C, strain MCK1, stronger effect = lower value
Among all 5,500 compounds or so, about 2,000 (36%) were called active. Roughly 18% stayed inconclusive and do not appear here. The list shows a part of the results.
Reported values of normalized growth for individual entries

NC(=NCCCCCCN=C(N)N=C(N)Nc1ccc(Cl)cc1)N=C(N)Nc1ccc(Cl)cc1: 0.0676 (active)

For record `O=c1c(O)cccc2cc(O)c(O)c(O)c12` the listed normalized growth is 0.959 (inactive)

For record `COc1ccc(-c2c(OC)c3c(OC)c4c(cc3oc2=O)OC(C)(C)C=C4)cc1` the listed normalized growth is 0.967 (inactive)

For record `CC(C)N=C(N)N=C(N)Nc1ccc(Cl)cc1` the listed normalized growth is 1.02 (inactive)

For record `O=C(O)CC[N+](=O)[O-]` the listed normalized growth is 0.982 (inactive)

For record `CC(=O)NS(=O)(=O)c1ccc(N)cc1` the listed normalized growth is 0.97 (inactive)

For record `O[C@H]1[C@H](O)[C@@H](O)C2OC[C@H]1O2` the listed normalized growth is 1 (inactive)

For record `COc1ccc(-c2c(O)c3c(OC)c4c(cc3oc2=O)OC(C)(C)C=C4)cc1` the listed normalized growth is 0.84 (active)

###

Reported values of normalized growth for individual entries
- MEASUREMENT_DESCRIPTION: chemical genetic growth profiling, strain panel (AID 1159580);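 also: tested at 20 µM; growth read once vehicle control cultures reached saturation at 30 °C; 1 = growth at the plate median or of vehicle wells; lower values mean less growth of the strain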
- EXPERIMENTAL_CONDITIONS: S. cerevisiae deletion strains, growth OD, locus YPR106W, strain ISR1, stronger effect = lower value
Among all 5,500 compounds or so, about 2,000 (36%) were called active. Another 18% or so got no clear call; they are omitted. This is one part of the list.

// below: answered compounds
Cc1oc(C(C)(C)C)cc1-c1cc(NC(=O)c2ccccc2)n[nH]1: 0.969 (inactive)
COC(=S)Nc1cc(Cl)cc(Cl)c1: 0.927 (inactive)
CC(C)OC(=O)Nc1cc(Cl)cc(Cl)c1: 0.959 (inactive)
Cc1cc(C)c2cc(C(=O)NCCNc3ccc(C(F)(F)F)cn3)[nH]c2c1: 1 (inactive)
FC(F)(F)c1ccncc1-c1nc(-c2ccc(Cl)cc2)cs1: 0.956 (inactive)

Could you now look at the following compound, please?
For record `Cc1csc2c(N3CCN(C(=S)Nc4ccc(C(F)(F)F)cc4)CC3)ncnc12` the listed normalized growth is 0.975 (inactive)

###

- MEASUREMENT_DESCRIPTION: chemical genetic growth profiling, strain panel (AID 1159580);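 also: tested at 20 µM; growth read once vehicle control cultures reached saturation at 30 °C; 1 = growth at the plate median or of vehicle wells; lower values mean less growth of the strain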
- EXPERIMENTAL_CONDITIONS: S. cerevisiae deletion strains, growth OD, locus YOR265W, strain rbl2, stronger effect = lower value
Out of some 5,500 compounds screened, about 2,000 (36%) were called active. Not shown: some 18% with an inconclusive outcome. This is one part of the list.
MEASURED_ATTRIBUTE: normalized growth
Please give only the number in your answer, with no unit.

// below: answered molecules
ClC1C(Cl)C(Cl)C(Cl)C(Cl)C1Cl (stereo not given): 0.981
O=C(O)CC[N+](=O)[O-]: 0.997
CC(=O)c1c(O)cc(O)cc1O: 0.976
O=C(/C=C/c1ccc(O)cc1)c1ccc(O)cc1O: 1.02
O=c1c(O)c(-c2ccccc2)oc2ccccc12: 0.467

For record `CCCCN(CC)c1c([N+](=O)[O-])cc(C(F)(F)F)cc1[N+](=O)[O-]` the listed normalized growth is 1.03

For record `O=C(CCc1ccc(O)cc1)c1c(O)cc(O)cc1O` the listed normalized growth is 1

For record `NS(=O)(=O)c1cc2c(cc1Cl)NCNS2(=O)=O` the listed normalized growth is 0.997

###

- MEASUREMENT_DESCRIPTION: chemical genetic growth profiling, strain panel (AID 1159580);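 also: tested at 20 µM; growth read once vehicle control cultures reached saturation at 30 °C; 1 = growth at the plate median or of vehicle wells; lower values mean less growth of the strain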
- EXPERIMENTAL_CONDITIONS: S. cerevisiae deletion strains, growth OD, locus YPL153C, strain RAD53
The campaign covered roughly 5,500 compounds. About 2,000 (36%) were called active. About 18% were inconclusive and are not listed. Rule as the data show it: active = normalized growth mostly below about 0.91 (no sharp cut-off); inconclusive = no clear call, values can overlap the other calls; inactive = mostly above about 0.92. The list shows a part of the results.
Just give me one of these, please: true for active, false for inactive

Completed entries (count: 5):
O=[N+]([O-])c1cc(C(F)(F)F)ccc1Sc1n[nH]c(-c2cc(Cl)cc(Cl)c2)n1: true
O=C(Nc1ccccc1Sc1ccc(C(F)(F)F)cc1[N+](=O)[O-])C(Cl)Cl: false
FC(F)(F)c1c2c(nc3cc(-c4ccco4)nn13)CCC2: false
N/C(=N/OCc1c(F)cccc1Cl)c1ccc(Cl)cc1: false
Cc1cc2nc3c(Cl)c(O)c4ccccc4c3nc2cc1C: false

Record request — test call for `COC(=O)c1cccc(NS(=O)(=O)c2ccc(Cl)c(Cl)c2)c1`
false

These entries and their values trace back to PubChem BioAssay AID1159580.
